molecular target: 5-hydroxytryptamine receptor 1A (Homo sapiens); assay: Displacement of [3H]MPPF from human cloned 5HT1A receptor expressed in HEK293 cells at 3 uM after 90 mins by liquid scintillation counting; type: cell-based
experimental.readout: Activity (%)
Your answer is read as %, so omit the unit and give the number.

Solved cases (2 shown):
{"smiles.text": "CN1C(=N)N(C)/C(=C/c2c[nH]c3cc(Cl)c(Cl)cc23)C1=O", "Activity / %": 0}
{"smiles.text": "CN1C(=N)NC(=O)/C1=C\\c1c[nH]c2ccc(Cl)cc12", "Activity / %": 9}

Request: Give 5-hydroxytryptamine receptor 1A (Homo sapiens) Activity for "CN1C(=N)N(C)/C(=C/c2c[nH]c3cc(Cl)ccc23)C1=O"
Response: 3

Request: Give 5-hydroxytryptamine receptor 1A (Homo sapiens) Activity for "CN1C(=N)NC(=O)/C1=C\c1c[nH]c2ccc(F)cc12"
Response: 0

Request: Give 5-hydroxytryptamine receptor 1A (Homo sapiens) Activity for "CN1C(=N)NC(=O)/C1=C\c1c[nH]c2ccccc12"
Response: 0

Request: Give 5-hydroxytryptamine receptor 1A (Homo sapiens) Activity for "CN1C(=N)NC(=O)/C1=C\c1c[nH]c2cc(Cl)ccc12"
Response: 1

Request: Give 5-hydroxytryptamine receptor 1A (Homo sapiens) Activity for "CCN1C(=N)N(C)/C(=C\c2c[nH]c3ccc(Br)cc23)C1=O"
Response: 0

Request: Give 5-hydroxytryptamine receptor 1A (Homo sapiens) Activity for "CN1C(=N)N(C)/C(=C/c2c[nH]c3ccc(F)cc23)C1=O"
Response: 4

Request: Give 5-hydroxytryptamine receptor 1A (Homo sapiens) Activity for "CCN1C(=N)N(C)/C(=C\c2c[nH]c3ccc(I)cc23)C1=O"
Response: 15

Request: Give 5-hydroxytryptamine receptor 1A (Homo sapiens) Activity for "CN1C(=N)N(C)/C(=C/c2c[nH]c3ccc(Cl)cc23)C1=O"
Response: 9

Request: Give 5-hydroxytryptamine receptor 1A (Homo sapiens) Activity for "CCN1C(=N)N(C)/C(=C/c2c[nH]c3cc(Br)ccc23)C1=O"
Response: 0

Request: Give 5-hydroxytryptamine receptor 1A (Homo sapiens) Activity for "CN1C(=N)NC(=O)/C1=C\c1c[nH]c2cc(Cl)c(Cl)cc12"
Response: 4

Request: Give 5-hydroxytryptamine receptor 1A (Homo sapiens) Activity for "CN1C(=N)NC(=O)/C1=C\c1c[nH]c2ccc(Br)cc12"
Response: 6

Request: Give 5-hydroxytryptamine receptor 1A (Homo sapiens) Activity for "CN1C(=N)NC(=O)/C1=C\c1c[nH]c2cc(F)ccc12"
Response: 0

Request: Give 5-hydroxytryptamine receptor 1A (Homo sapiens) Activity for "CN1C(=N)N(C)/C(=C/c2c[nH]c3ccc(Br)cc23)C1=O"
Response: 18

Request: Give 5-hydroxytryptamine receptor 1A (Homo sapiens) Activity for "CN1C(=N)N(C)/C(=C/c2c[nH]c3cc(F)ccc23)C1=O"
Response: 2
